Below is a list of entries, each paired with its recorded Percent Effect value.
TARGET OR SYSTEM: Tyrosyl-tRNA synthetase, putative (Trypanosoma cruzi (strain CL Brener))
EXPERIMENTAL DETAILS: Trypanosoma cruzi tyrosyl tRNA synthetase (TcYRS) _High Tyrosine SOP
Assay type: functional
Parameters: scale not given: in the data most compounds retested in dose-response had high values
APPLIED CONDITIONS: 30 µM
Report the value in % with no unit label.

{"columns": ["COMPOUND", "REPORTED"],
 "data": [
  ["O=C(Nc1ccnc(OC2CCOC2)c1)C1CCC1 (stereo unspecified)", -2.1]
]}

Name the reported Percent Effect value associated with the compound O=C(NCCCn1cncn1)NCC(c1ccco1)N1CCCCC1 (stereo unspecified)
4.76

Find the recorded Percent Effect belonging to CNC(=O)Nc1cc(-c2ccc(Br)cc2)nn1CCO and report it.
4.25

Which measured Percent Effect value corresponds to CC(C)(C)c1nnc(CN2CCCC2c2noc(C3CC3)n2)o1 (stereo unspecified) ?
10.9

Entry CN(C)C(=O)CN1C[C@@H]2CC[C@H](C1)N(Cc1cc(F)ccc1F)C2 has what Percent Effect?
4.17

Param item = O=C(COCc1nc(-c2ccncc2)no1)N1CCCC1 ; retrieve measured Percent Effect.
5.38

# input compound: Cc1n[nH]cc1C(=O)N1CCCC(n2nnc3cc(F)ccc32)C1 (stereo unspecified) ; wanted: its Percent Effect
5.32

Give its Percent Effect value. Item: COc1cnc(C2(O)CCN(C(=O)c3ccncc3)CC2)c(OC)n1
2.15

Fill in: Percent Effect of CCn1cc(NC(=O)NCC2(N3CCOCC3)CCSC2)cn1 (stereo unspecified) is ___
6.88
